Tested on: NCI-H226 lung
measurement.protocol: NCI tumour cell line growth inhibition, 48 h
Peptide text beside a SMILES is read from it. * marks the point of attachment. Boc = CC(C)(C)OC(=O)*; OBn = c1ccc(CO*)cc1
value.kind: TGI

Here are 5 compounds together with their reported answers.
compound	value.kind	readout.value
COc1c2ccccc2c(OC)c2nc(C)ccc12	TGI	> 100 µM
CCOC(=O)C(NC(=O)CC(C)C)(Nc1ccc(S(=O)(=O)Nc2nc(C)cc(C)n2)cc1)C(F)(F)F (stereo not drawn)	TGI	> 100 µM
CCOC(=O)C1=C(Nc2ccc(Cl)cc2Cl)OC/C1=N\NS(=O)(=O)c1ccc(C)cc1	TGI	> 100 µM
O=c1[nH]nc(Cc2ccccc2)n1/N=C/c1ccccc1Cl	TGI	> 100 µM
NC1=NN(c2ccccc2)C2(O)c3ccncc3C3=NN(c4ccccc4)C(=O)C132 (stereo not drawn)	TGI	> 100 µM

Provide TGI for all items below, preserving their order.
1. CC1=NN(c2nc(N)nc(CSCc3nc(N)nc(N(C)C)n3)n2)C(C)(C)C1
2. Nc1ncn(C2C=C(CO)C(O)C2O)c(=O)n1 (stereo not drawn)
3. Cc1cc2cc3c(C)cc(=O)oc3c(C)c2o1
4. C#C[C@]1(O)CCC2C3CCc4cc(Oc5nc(F)nc(-c6c7cc8ccccc8cc7c7n6CCS7)n5)ccc4C3CCC21C (stereo partly drawn)
5. CC1=C(C(=O)NCCc2ccccc2)CC(C(=O)NCCc2ccccc2)=C(C)N1

result:
1: > 100 µM; 2: > 100 µM; 3: > 100 µM; 4: > 100 µM; 5: > 100 µM

Provide TGI for all items below, preserving their order.
1. CCn1c(O)c(C=N)c(=O)n(CC)c1=O
2. Cc1cccc(Cl)c1NC(=O)/C=C/c1ccccc1
3. COc1ccc(-c2c(CN3CCOCC3)sc3nc4ccccc4n23)cc1
4. CC(NC(=O)CNC(=O)OC(C)(C)C)C(=O)NC(Cc1ccccc1)C(=O)OCc1ccccc1 (stereo not drawn) (Boc-Gly-Ala-Phe-OBn; configuration not given here)
5. CCC1=CC2Cc3nc4cc(Cl)ccc4c(N)c3C(C1)C2 (stereo not drawn)
6. O=C(CCc1ccc(O)cc1)NCCc1cccc(OCc2ccccc2)c1
7. Cc1nc2cc(N)c(F)cc2[nH]1
8. O=C1c2cc([N+](=O)[O-])ccc2-c2cccc(F)c21

result:
> 100 µM
> 100 µM
> 79.8 µM
> 100 µM
5.73 µM
97.8 µM
> 100 µM
> 100 µM

Provide TGI for all items below, preserving their order.
1. COc1cc(NP(=O)(Oc2ccccc2)Oc2ccccc2)ccc1Nc1c2ccccc2nc2c1[nH]c1ccccc12
2. CC1=CC(=O)C(=O)C2=C1OC1(C2)C(C)CCC2C3(C)CCC(O)C(C)(C)C3CCC21C (stereo not drawn)
3. COc1cc2c(cc1OCCCCCCN1CCN(c3ncnc4ccccc34)CC1)N=CC1CCCN1C2=O (stereo not drawn)
4. CCN(CC)C(=S)SNCc1ccc(S(N)(=O)=O)cc1
5. Cc1cc(NCCCCCCCCCC[n+]2c(C)cc(N)c3ccccc32)c2ccccc2n1
6. O=C(Nc1cc[c]([Sb](=[O])([OH])[OH])cc1)c1ccccc1
7. COc1ccc(C2=C(c3ccc(OC)c(OC)c3)C(=O)OC2)cc1

result:
["20.2 µM", "35.5 µM", "0.33 µM", "> 63.2 µM", "> 100 µM", "> 100 µM", "2.92 µM"]

Provide TGI for all items below, preserving their order.
1. CCCN1CCN(c2ccc3nc(-c4ccc5nc(-c6cc(OC)ccc6OC)[nH]c5c4)[nH]c3c2)CC1
2. CN(C)CCCCN1c2ccccc2Sc2cc(N=[N+]=[N-])ccc21
3. COc1ccc2c(c1)N=C1CSC(c3cccc(Br)c3)N1C2 (stereo not drawn)
4. [N-]=[NH+]CC(=O)OC(COCc1ccccc1)COCc1ccccc1

result:
1: 46 µM; 2: 7.9 µM; 3: 43.5 µM; 4: > 100 µM

Provide TGI for all items below, preserving their order.
1. CC1=NN(C(=O)c2ccccc2O)C(=O)/C1=C/c1ccccc1O
2. COC(=O)C12C3C4C5C3(C#N)C1C5(C(=O)OC)C42C(=O)N(C(C)C)C(C)C (stereo not drawn)
3. c1ccc(Nc2nnc(Cn3ccc4ccccc43)s2)cc1
4. O=c1oc2ccccc2nc1/C=C(\O)c1ccc([N+](=O)[O-])cc1
5. Cc1ccc(/C=C/C(=O)c2sc(-c3cccnc3)nc2C)cc1

result:
1: 16.4 µM; 2: > 100 µM; 3: > 100 µM; 4: > 100 µM; 5: > 100 µM

Provide TGI for all items below, preserving their order.
1. COc1cc(C(c2cc3c(cc2O)OCO3)N2CCCCC2)cc(OC)c1OC (stereo not drawn)
2. Cc1cccc2[s+]snc12
3. CC(C)CNc1nc(-c2ccccc2)nc2ccccc12

result:
1: 41.6 µM; 2: > 100 µM; 3: 35 µM

Provide TGI for all items below, preserving their order.
1. CN1CCCCCC(=N\O)/C(=N/O)CCCCC1
2. CCCCCCCCCCC(O)C1CCC(C(O)CCC(O)C2CCC(CCCCCCC[C@H](O)CC3=C[C@@H](C)OC3=O)O2)O1 (stereo partly drawn)
3. COc1cc2cc(C(=O)Nc3cc(N)c4ccccc4c3CCCl)[nH]c2c(OC)c1OC
4. Cc1cc(N2CCN(c3ccnc4cc(Cl)ccc34)CC2)nc(NC2CCCCC2)n1

result:
> 100 µM
40.4 µM
0.308 µM
15 µM

Provide TGI for all items below, preserving their order.
1. COc1ccc2c(CN3CCC[C@H]3C(=O)O)cc3cc4c(cc3c2c1)OCO4
2. N#CC(Nc1ccccc1)c1ccc(C(C#N)Nc2ccccc2)cc1 (stereo not drawn)

result:
> 100 µM
> 100 µM
